protocol_details: Oral Bioavailability (PO) and Pharmacokinetics Assay
Format: in vivo, Sprague-Dawley rats
recorded_conditions: male, Sprague-Dawley, plasma; rat, IP 3 mg/kg; read-out: F systemic bioavailability
measurement_type: bioavailability
Param answer (str): number followed by unit.

[Q] Need bioavailability of Cc1ccccc1C(=O)Nc1nc(NC(=O)c2ccccc2C)n(-c2ccccc2)n1 [Compound F] , thanks.
[A] 75%

---

protocol_details: Oral Bioavailability (PO) and Pharmacokinetics Assay
Format: in vivo, Sprague-Dawley rats
recorded_conditions: male, Sprague-Dawley, plasma; rat, IV bolus 1 mg/kg
Parameter: AUC(0-t). Scope: all listed entries.
Record the result as number plus unit.

Below are worked cases with known answers.
>  <compound_smiles>
Cc1ccccc1C(=O)Nc1nc(NC(=O)c2ccccc2C)n(-c2ccccc2)n1

>  <measurement_type>
AUC(0-t)

>  <recorded_result>
4270 ng·h/mL

$$$$
>  <compound_smiles>
O=C(Nc1nc(NC(=O)c2ccccc2)n(-c2ccccc2)n1)c1ccccc1

>  <measurement_type>
AUC(0-t)

>  <recorded_result>
1100 ng·h/mL

$$$$
>  <compound_smiles>
O=C(/C=C/c1ccccc1)Nc1nc(NC(=O)c2ccccc2)nn1-c1ccccc1

>  <measurement_type>
AUC(0-t)

>  <recorded_result>
1030 ng·h/mL

$$$$
>  <compound_smiles>
Cc1ccccc1C(=O)Nc1nc(NC(=O)c2ccccc2)nn1-c1ccccc1

>  <measurement_type>
AUC(0-t)

>  <recorded_result>
902 ng·h/mL

$$$$

Next:
[Q] // AUC(0-t) lookup, key: `Cc1ccccc1C(=O)Nc1nc(NC(=O)c2ccccc2)n(-c2ccccc2)n1`
[A] 1370 ng·h/mL

Sourced from patent US10308617B2
